Entry source: patent US20240261398A1

# System: A/California/07/2009 virus (H1N1; CA07)
# Parameters: species or system BALB/c mice
# CONDITION SUMMARY: mouse, in vivo
READOUT: Relative ratio of antibody titer to alum (compound/alum), primary screening

- COMPOUND: "CCN(Cc1cccc(S(=O)(=O)[O-])c1)c1ccc(C(=C2C=CC(=[N+](CC)Cc3cccc(S(=O)(=O)[O-])c3)C=C2)c2ccc(O)cc2S(=O)(=O)[O-])cc1.[Na+].[Na+]"
  ASSAY TARGET: "A/California/07/2009 virus (H1N1; CA07)"
  REPORTED VALUE: 1.00
- COMPOUND: "COC(=O)[C@H](Cc1ccccc1)NC(=O)[C@H](CC(=O)O)NCCC(C)(C)C [Neotame]"
  ASSAY TARGET: "A/California/07/2009 virus (H1N1; CA07)"
  REPORTED VALUE: 2.00
- COMPOUND: "O.O=P([O-])([O-])OCC(O)CO.[Ca+2] (stereo not drawn)"
  ASSAY TARGET: "A/California/07/2009 virus (H1N1; CA07)"
  REPORTED VALUE: 1.71
